tested on: blackgrass (Alopecurus myosuroides); experiment: Test A postemergence, visual plant response rating; type: in vivo; details: 500 g ai/ha, postemergence; 0 is no effect, 100 is complete control
The entries below are paired with their reported Blackgrass plant response rating (0 to 100 scale).
READOUT_TYPE: Blackgrass plant response rating (0 to 100 scale)

>>> df
                                   compound  assay_value
0  CON=C(c1c(O)c(C)nn(C)c1=O)c1cccc2sccc12 [Compound 58]           90
1  C=CCn1nc(C)c(O)c(C(=NOC)c2cccc(Cl)c2)c1=O (mixture of isomers) [Compound 5]           50
2  CO/N=C(/c1ccccc1C#N)c1c(O)c(C)nn(C)c1=O [Compound 77]            0
3  CCO/N=C(\c1ccccc1C)c1c(O)c(C)nn(C)c1=O [Compound 14]           60
4  CON=C(c1cccc(C(F)(F)F)c1Cl)c1c(O)c(C)nn(C)c1=O [Compound 103]           40
5  CON=C(c1c(O)c(C)nn(C)c1=O)c1cccc2ccoc12 [Compound 60]           10
6  CCC(=O)Oc1c(C)nn(C)c(=O)c1C(=NOC)c1cccc2ccccc12 [Compound 49]           90
7  CCO/N=C(/c1c(O)c(C)nn(C)c1=O)c1cccc2ccccc12 [Compound 78]           80
8  CO/N=C(/c1ccccc1F)c1c(O)c(C)nn(C)c1=O [Compound 34]           10
9  CON=C(c1cccc(C#N)c1)c1c(O)c(C)nn(C)c1=O [Compound 57]            0

###

system: pigweed (Amaranthus retroflexus); experiment: Test C preemergence, visual plant response rating; assay type: in vivo; details: Test C, 125 g ai/ha, 0 is no effect, 100 is complete control
READOUT_TYPE: Pigweed plant response rating (0 to 100 scale)

In [3]: df
Out[3]:
                                        mol  assay_value
0  C#CCO/N=C(/c1cccc(/C=C\Cl)c1)c1c(O)c(C)nn(C)c1=O           10
1  C#CCO/N=C(\c1ccc(F)c(Cl)c1)c1c(O)c(C)nn(C)c1=O           30
2  C#CCON=C(c1cccc(OC(F)F)c1)c1c(O)c(C)nn(C)c1=O            0
3  CCCCON=C(c1cc(Cl)cc(Cl)c1Cl)c1c(O)c(C)nn(C)c1=O            0
4  CCO/N=C(/c1c(O)c(Cl)nn(C)c1=O)c1cc(Br)cc2ccccc12           70
5  CCO/N=C(/c1c(O)c(Cl)nn(C)c1=O)c1ccc(F)c2ccccc12           90
6  CO/N=C(\c1c(OC(C)=O)c(Cl)nn(C)c1=O)c1cc(Br)cc2ccccc12           50
7  C#CCON=C(c1cccc(OCC)c1)c1c(O)c(C)nn(C)c1=O           10
8  C#CCO/N=C(\c1cc(Cl)cc(Br)c1)c1c(O)c(C)nn(C)c1=O          100

###

tested on: galium (catchweed bedstraw, Galium aparine); assay: Test C postemergence, visual plant response rating; type: in vivo; conditions: Postemergence, 31 g ai/ha
Mark 1 only when Galium plant response rating (0 to 100 scale) stays strictly below 80. Values equal to the cut-off are 0.

In [3]: df
Out[3]:
                                   compound  class_name
0  C#CCO/N=C(\c1cccc(/C=C/Cl)c1)c1c(O)c(C)nn(C)c1=O [Compound 254]           1
1  C#CCO/N=C(/c1cc(Cl)cc(Br)c1)c1c(O)c(C)nn(C)c1=O [Compound 291]           0
2  Cc1nn(C)c(=O)c(/C(=N/OCCO)c2cccc3cc(Cl)ccc23)c1O [Compound 240]           1
3  CO/N=C(\c1c(O)c(C)nn(C)c1=O)c1cccc2cc(Cl)ccc12 [Compound 300]           0
4  C#CCO/N=C(\c1ccc(F)c(Br)c1)c1c(O)c(C)nn(C)c1=O [Compound 164]           1
5  CON=C(c1ccc(F)c(Br)c1)c1c(O)c(C)nn(C)c1=O [Compound 176]           1

###

system: galium (catchweed bedstraw, Galium aparine); experiment: Test A postemergence, visual plant response rating; format: in vivo; conditions: Postemergence, 125 g ai/ha; 0 to 100 scale (0 no effect, 100 complete control)
Text: […]
The entries below are paired with their reported Galium plant response rating.
READOUT_TYPE: Galium plant response rating

                                    compound                               target_desc  assay_value
 0  CO/N=C(\c1c(O)c(C)nn(C)c1=O)c1cccc2ccccc12  galium (catchweed bedstraw, Galium aparine)           90
 1  CO/N=C(/c1cc(C)ccc1C)c1c(O)c(C)nn(C)c1=O  galium (catchweed bedstraw, Galium aparine)           60
 2  CON=C(c1c(O)c(C)nn(C)c1=O)c1ccc(Cl)c2ccccc12  galium (catchweed bedstraw, Galium aparine)           70
 3  CON=C(c1c(O)c(C)nn(C)c1=O)c1cccc2ccc(Cl)cc12  galium (catchweed bedstraw, Galium aparine)           80
 4  C=CCn1nc(C)c(O)c(C(=NOC)c2cccc(Cl)c2)c1=O (mixture of isomers)  galium (catchweed bedstraw, Galium aparine)            0
 5  Cc1ccccc1/C(=N\OC(C)C)c1c(O)c(C)nn(C)c1=O  galium (catchweed bedstraw, Galium aparine)           80
 6   CON=C(c1cccc(C#N)c1)c1c(O)c(C)nn(C)c1=O  galium (catchweed bedstraw, Galium aparine)           10
 7  CCO/N=C(\c1cccc(Cl)c1)c1c(O)c(C)nn(C)c1=O  galium (catchweed bedstraw, Galium aparine)           80
 8  CON=C(c1cc(Cl)ccc1C(F)(F)F)c1c(O)c(C)nn(C)c1=O  galium (catchweed bedstraw, Galium aparine)           70
 9  CO/N=C(\c1cc(C)ccc1Cl)c1c(O)c(C)nn(C)c1=O  galium (catchweed bedstraw, Galium aparine)           80
10  CON=C(c1ccccc1C1CC1)c1c(O)c(C)nn(C)c1=O [Compound 104]  galium (catchweed bedstraw, Galium aparine)           90
11  CON=C(c1c(Cl)ccc(C)c1F)c1c(O)c(C)nn(C)c1=O  galium (catchweed bedstraw, Galium aparine)           80
12  CO/N=C(/c1c(O)c(C)nn(C)c1=O)c1ccc(OC)c2ccccc12  galium (catchweed bedstraw, Galium aparine)           50
13      CO/N=C(\c1cscc1C)c1c(O)c(C)nn(C)c1=O  galium (catchweed bedstraw, Galium aparine)           70
14  C=CCON=C(c1c(O)c(C)nn(C)c1=O)c1cc(Br)cc2ccccc12 [Compound 114]  galium (catchweed bedstraw, Galium aparine)          100
15  CO/N=C(\c1cc(C)ccc1C)c1c(O)c(C)nn(C)c1=O  galium (catchweed bedstraw, Galium aparine)           60
16    CCc1ccccc1/C(=N\OC)c1c(O)c(C)nn(C)c1=O  galium (catchweed bedstraw, Galium aparine)           70
17  CO/N=C(/c1c(O)c(Cl)nn(C)c1=O)c1cccc2ccccc12  galium (catchweed bedstraw, Galium aparine)           90
18    CO/N=C(/c1ccccc1Cl)c1c(O)c(C)nn(C)c1=O  galium (catchweed bedstraw, Galium aparine)           60

###

The entries below are paired with their reported Kochia plant response rating.
test system: kochia (Kochia scoparia); assay: Test A preemergence, visual plant response rating; format: in vivo; settings: 125 g ai/ha, preemergence; 0 to 100 scale, 0 no effect, 100 complete control
READOUT_TYPE: Kochia plant response rating

>>> print(df.to_string())
                                   compound  assay_value
0      CO/N=C(\c1ccsc1C)c1c(O)c(C)nn(C)c1=O            0
1   CON=C(c1c(O)c(C)nn(C)c1=O)c1cccc2sccc12           30
2  CCO/N=C(/c1c(O)c(C)nn(C)c1=O)c1ccc(F)c2ccccc12           20
3  CON=C(c1ccccc1C1CC1)c1c(O)c(C)nn(C)c1=O [Compound 104]           20
4      CO/N=C(/c1ccsc1C)c1c(O)c(C)nn(C)c1=O            0

###

tested on: kochia (Bassia scoparia); assay: Test C postemergence, visual plant response rating; assay type: in vivo; settings: Postemergence, 31 g ai/ha
The entries below are paired with their reported Kochia plant response rating (0 to 100 scale).
READOUT_TYPE: Kochia plant response rating (0 to 100 scale)

>>> print(df.to_string())
                                        mol               target_desc  assay_value
0  CON=C(c1cc(Cl)cc(Cl)c1)c1c(O)c(C)nn(C)c1=O  kochia (Bassia scoparia)           80
1  C#CCO/N=C(\c1cccc(/C=C/Cl)c1)c1c(O)c(C)nn(C)c1=O  kochia (Bassia scoparia)           50
2  C#CCO/N=C(\c1c(O)c(Cl)nn(C)c1=O)c1ccc(F)c2ccccc12  kochia (Bassia scoparia)           50
3  CON=C(c1c(OC(C)=O)c(Cl)nn(C)c1=O)c1ccc(F)c2ccccc12  kochia (Bassia scoparia)           10
4  CO/N=C(/c1c(O)cnn(C)c1=O)c1ccc(F)c2ccccc12  kochia (Bassia scoparia)           30
5  CO/N=C(\c1cccc(/C=C\Cl)c1)c1c(O)c(C)nn(C)c1=O  kochia (Bassia scoparia)           10

Value source: patent US20210045385A1
